experimental-system: HLA-A*02:06
experiment: IEDB peptide-MHC binding, purified MHC/competitive/fluorescence; filed as Kd, often an IC50 or EC50 that approximates it; bounds were set here for any values at or beyond the usual limits of such assays
experimental-context: source organism: Lyssavirus rabies
value-kind: Kd (nM)
Please reply with the bare figure in nM and do not write the unit itself.

Value of measured Kd for the entry `RQMKSGGRF` : 476

====

experimental-system: HLA-C*06:02
experiment: IEDB peptide-MHC binding, purified MHC/direct/fluorescence; filed as Kd, often an IC50 or EC50 that approximates it; bounds were set here for any values at or beyond the usual limits of such assays
experimental-context: source organism: Burkholderia mallei SAVP1
pKd: −log10 of the molar value.
value-kind: pKd

The observed pKd for `YARRYFYPL` when tested with HLA-C*06:02 stands at ≤ 4.70
